tested-system: T1, Human CD24 (human, UniProt P25063 27-59, limits assumed)
T1 chain (looked up): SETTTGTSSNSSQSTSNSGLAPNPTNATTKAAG
test-protocol: SPR affinity ranking, 1:1 binding, analyte conc. 19.71 nM
Label MET when koff is strictly below 0.01 s⁻¹; otherwise label NOT MET.

Please review the following examples before continuing.
Antibody No 18, lead clone of 4451H (HC N35G, T59Y; LC T97I) (antibody, V domains shown) VH: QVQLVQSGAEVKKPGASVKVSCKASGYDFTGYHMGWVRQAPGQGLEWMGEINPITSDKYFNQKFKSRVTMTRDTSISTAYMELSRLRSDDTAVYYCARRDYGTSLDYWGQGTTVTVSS VL: DIQLTQSPSFLSASVGDRVTITCRASKSISKYLAWYQQKPGKAPKLLIYAGSTLHSGIPSRFRGSGSGTEFTLTISSLQPEDFATYYCQQHNEYPIIFGQGTKLEIK; NOT MET
Antibody No 9, lead clone of 4451H (HC T59Y; LC S30K, T97I) (antibody, V domains shown) VH: QVQLVQSGAEVKKPGASVKVSCKASGYDFTGYHMNWVRQAPGQGLEWMGEINPITSDKYFNQKFKSRVTMTRDTSISTAYMELSRLRSDDTAVYYCARRDYGTSLDYWGQGTTVTVSS VL: DIQLTQSPSFLSASVGDRVTITCRASKSIKKYLAWYQQKPGKAPKLLIYAGSTLHSGIPSRFRGSGSGTEFTLTISSLQPEDFATYYCQQHNEYPIIFGQGTKLEIK; NOT MET
Antibody No 13, lead clone of 4451H (HC T59Y; LC L33G) (antibody, V domains shown) VH: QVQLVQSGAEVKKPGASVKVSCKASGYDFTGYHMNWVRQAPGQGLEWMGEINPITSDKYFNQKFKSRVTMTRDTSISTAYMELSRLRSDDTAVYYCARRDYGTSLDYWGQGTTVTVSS VL: DIQLTQSPSFLSASVGDRVTITCRASKSISKYGAWYQQKPGKAPKLLIYAGSTLHSGIPSRFRGSGSGTEFTLTISSLQPEDFATYYCQQHNEYPITFGQGTKLEIK; NOT MET
Antibody No 17, lead clone of 4451H (HC N35G, T59Y; LC L33G) (antibody, V domains shown) VH: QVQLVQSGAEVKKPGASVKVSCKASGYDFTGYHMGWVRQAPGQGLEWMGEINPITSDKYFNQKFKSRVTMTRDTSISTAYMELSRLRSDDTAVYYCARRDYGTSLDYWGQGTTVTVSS VL: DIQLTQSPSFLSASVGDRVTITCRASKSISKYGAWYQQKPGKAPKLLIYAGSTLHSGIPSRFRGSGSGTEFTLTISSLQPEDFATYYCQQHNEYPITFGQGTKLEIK; MET
Antibody No 2, lead clone of 4451H (HC N35G; LC S30K, T97I) (antibody, V domains shown) VH: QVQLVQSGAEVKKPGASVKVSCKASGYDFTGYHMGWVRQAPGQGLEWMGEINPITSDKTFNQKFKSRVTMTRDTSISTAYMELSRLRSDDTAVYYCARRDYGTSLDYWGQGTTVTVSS VL: DIQLTQSPSFLSASVGDRVTITCRASKSIKKYLAWYQQKPGKAPKLLIYAGSTLHSGIPSRFRGSGSGTEFTLTISSLQPEDFATYYCQQHNEYPIIFGQGTKLEIK; NOT MET
Antibody No 1, lead clone of 4451H (HC N35G; LC K27A, T97I) (antibody, V domains shown) VH: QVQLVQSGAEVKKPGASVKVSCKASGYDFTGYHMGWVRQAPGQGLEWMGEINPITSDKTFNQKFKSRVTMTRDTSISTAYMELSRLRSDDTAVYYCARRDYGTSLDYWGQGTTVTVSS VL: DIQLTQSPSFLSASVGDRVTITCRASASISKYLAWYQQKPGKAPKLLIYAGSTLHSGIPSRFRGSGSGTEFTLTISSLQPEDFATYYCQQHNEYPIIFGQGTKLEIK; NOT MET

Strictly below 0.01 s⁻¹ in koff? Antibody No 4, lead clone of 4451H (HC N35G; LC K27A) (antibody, V domains shown) VH: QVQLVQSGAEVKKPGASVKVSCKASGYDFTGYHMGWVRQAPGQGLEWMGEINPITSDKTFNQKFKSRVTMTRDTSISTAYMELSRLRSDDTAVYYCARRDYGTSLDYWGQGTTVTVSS VL: DIQLTQSPSFLSASVGDRVTITCRASASISKYLAWYQQKPGKAPKLLIYAGSTLHSGIPSRFRGSGSGTEFTLTISSLQPEDFATYYCQQHNEYPITFGQGTKLEIK NOT MET

Strictly below 0.01 s⁻¹ in koff? Antibody No 3, lead clone of 4451H (HC N35G; LC L33G, T97I) (antibody, V domains shown) VH: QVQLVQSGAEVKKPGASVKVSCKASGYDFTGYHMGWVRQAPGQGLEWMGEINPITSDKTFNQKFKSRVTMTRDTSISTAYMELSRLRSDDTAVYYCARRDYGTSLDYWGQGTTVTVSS VL: DIQLTQSPSFLSASVGDRVTITCRASKSISKYGAWYQQKPGKAPKLLIYAGSTLHSGIPSRFRGSGSGTEFTLTISSLQPEDFATYYCQQHNEYPIIFGQGTKLEIK MET

Strictly below 0.01 s⁻¹ in koff? Antibody No 6, lead clone of 4451H (HC N35G; LC L33G) (antibody, V domains shown) VH: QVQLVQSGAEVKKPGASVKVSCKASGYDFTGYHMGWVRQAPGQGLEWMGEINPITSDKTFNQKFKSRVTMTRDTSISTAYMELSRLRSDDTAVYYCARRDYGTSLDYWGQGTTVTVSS VL: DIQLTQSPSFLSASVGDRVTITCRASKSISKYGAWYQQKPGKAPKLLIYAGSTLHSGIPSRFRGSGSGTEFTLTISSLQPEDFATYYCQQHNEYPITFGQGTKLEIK MET

Strictly below 0.01 s⁻¹ in koff? Antibody No 15 (4451HM15), lead clone of 4451H (HC N35G, T59Y; LC K27A) (antibody, V domains shown) VH: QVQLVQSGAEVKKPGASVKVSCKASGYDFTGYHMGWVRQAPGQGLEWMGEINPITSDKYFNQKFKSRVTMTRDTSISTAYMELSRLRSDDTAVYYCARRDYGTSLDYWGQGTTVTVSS VL: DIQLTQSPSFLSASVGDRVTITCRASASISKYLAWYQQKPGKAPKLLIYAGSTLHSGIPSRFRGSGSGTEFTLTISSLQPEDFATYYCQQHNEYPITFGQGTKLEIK MET

Origin of values: patent US20260265403A1
